Cited source: ChEMBL document CHEMBL1201862

# Tested on: MDA-MB-435
# Protocol Notes: NCI tumour cell line growth inhibition, 48 h
Activity calls are given as the source filed them. Rule as the data show it: active = GI50 up to about 1.1 µM and inactive = higher.
Classes used: 1 (active), 0 (inactive)

>>> print(df.to_string())
                                   compound  assay_target  discrete_label
0                             CCCS(=O)(=O)O    MDA-MB-435               0
1  O=c1oc2cc(O)ccc2c(O)c1C(c1ccccc1F)c1c(O)c2ccc(O)cc2oc1=O    MDA-MB-435               0
2  OC1[C@@H]2[C@@H](O)[C@H](O)[C@@H](O)N2C[C@@H]1O (stereo not given in full)    MDA-MB-435               0
3         C/C(=C/CNc1ncnc2c1ncn2CCC(=O)O)CO    MDA-MB-435               0
4  Cc1c(C(=O)C(=O)c2ccccc2)c(C)c(C(=O)C(=O)c2ccccc2)c(C)c1C(=O)C(=O)c1ccccc1    MDA-MB-435               0
5  COc1cc(C(=O)NC2CCc3cc(OC)c(OC)c(OC)c3-c3ccc(OC)c(=O)cc32)cc(OC)c1OC (stereo not given)    MDA-MB-435               1
6  CN(C)c1ccc(/C=C(\C#N)c2nc(-c3cc4ccccc4oc3=O)cs2)cc1    MDA-MB-435               0
7  CC(C)(C)NCC(O)c1ccc(O)c(CO)n1 (stereo not given)    MDA-MB-435               0
8      COc1cc(C=O)cc(/C=N/N=C/c2ccccc2O)c1O    MDA-MB-435               0
9  CC1=NN(C(=O)c2ccccc2O)C(c2ccccc2Cl)C1C(=O)Nc1ccccc1 (stereo not given)    MDA-MB-435               1
